Molecular target: Transient receptor potential cation channel subfamily V member 1 (Homo sapiens)
Sequence (Q8NER1 whole entry): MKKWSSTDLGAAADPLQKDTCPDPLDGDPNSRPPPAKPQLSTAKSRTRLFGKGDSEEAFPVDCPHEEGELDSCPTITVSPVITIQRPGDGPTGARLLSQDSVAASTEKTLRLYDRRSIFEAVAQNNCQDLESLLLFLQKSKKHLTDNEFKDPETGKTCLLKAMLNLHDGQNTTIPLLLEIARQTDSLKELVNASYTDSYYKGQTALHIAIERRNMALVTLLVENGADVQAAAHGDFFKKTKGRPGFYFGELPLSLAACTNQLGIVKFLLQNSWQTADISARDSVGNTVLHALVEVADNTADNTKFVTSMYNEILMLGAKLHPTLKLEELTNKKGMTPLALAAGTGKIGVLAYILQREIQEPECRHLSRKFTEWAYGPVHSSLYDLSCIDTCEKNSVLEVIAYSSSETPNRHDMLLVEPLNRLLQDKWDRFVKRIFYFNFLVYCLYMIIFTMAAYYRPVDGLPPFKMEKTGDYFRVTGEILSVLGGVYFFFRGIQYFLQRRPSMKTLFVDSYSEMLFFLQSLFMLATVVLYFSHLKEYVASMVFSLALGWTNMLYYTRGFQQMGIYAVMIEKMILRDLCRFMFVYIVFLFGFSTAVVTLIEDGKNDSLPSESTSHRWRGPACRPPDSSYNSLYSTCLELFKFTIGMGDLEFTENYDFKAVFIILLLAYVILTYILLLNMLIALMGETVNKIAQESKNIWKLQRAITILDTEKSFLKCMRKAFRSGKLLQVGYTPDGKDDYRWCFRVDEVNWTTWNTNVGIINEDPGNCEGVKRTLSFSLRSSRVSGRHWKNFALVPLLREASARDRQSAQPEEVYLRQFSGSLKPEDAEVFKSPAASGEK
Assay: Antagonist activity against human TRPV1 assessed as inhibition of acid-induced calcium influx by FLIPR assay
Endpoint: pIC50
Please express pIC50 as -log10 of the molar concentration.

## Input Give Transient receptor potential cation channel subfamily V member 1 (Homo sapiens) pIC50 for O=C(Nc1ccc2cccnc2c1)c1ccc(-c2ccccc2)nc1
## Output 8.10

---

Target: Transient receptor potential cation channel subfamily V member 1 (Rattus norvegicus, UniProt O35433)
Sequence (O35433 whole entry): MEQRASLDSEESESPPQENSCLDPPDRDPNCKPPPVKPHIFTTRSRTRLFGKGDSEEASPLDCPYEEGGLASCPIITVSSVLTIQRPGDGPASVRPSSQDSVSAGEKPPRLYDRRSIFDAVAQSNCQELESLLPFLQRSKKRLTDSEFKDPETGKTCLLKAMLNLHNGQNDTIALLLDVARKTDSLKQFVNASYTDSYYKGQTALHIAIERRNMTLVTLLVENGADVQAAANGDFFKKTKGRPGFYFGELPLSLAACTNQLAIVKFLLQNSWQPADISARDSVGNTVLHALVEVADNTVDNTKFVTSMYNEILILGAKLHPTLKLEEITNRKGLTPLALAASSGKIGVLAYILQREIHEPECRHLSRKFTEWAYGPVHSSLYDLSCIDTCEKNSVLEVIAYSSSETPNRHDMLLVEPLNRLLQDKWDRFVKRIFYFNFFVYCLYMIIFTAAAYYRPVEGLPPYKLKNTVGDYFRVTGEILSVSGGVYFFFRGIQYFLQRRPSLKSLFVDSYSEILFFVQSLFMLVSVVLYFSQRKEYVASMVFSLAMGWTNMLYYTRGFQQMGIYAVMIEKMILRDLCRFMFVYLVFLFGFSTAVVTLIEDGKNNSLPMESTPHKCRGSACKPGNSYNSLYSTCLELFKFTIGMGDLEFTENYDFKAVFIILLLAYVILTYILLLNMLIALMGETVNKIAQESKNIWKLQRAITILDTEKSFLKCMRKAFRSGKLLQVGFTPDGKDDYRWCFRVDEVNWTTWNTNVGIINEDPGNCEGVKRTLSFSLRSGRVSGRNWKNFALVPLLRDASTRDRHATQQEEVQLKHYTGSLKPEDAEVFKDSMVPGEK
Assay: Antagonist activity against rat TRPV1 assessed as inhibition of acid-induced calcium influx by FLIPR assay
Endpoint: pIC50
Please express pIC50 as -log10 of the molar concentration.

## Input Value lookup for pIC50; key = O=C(Nc1ccc2cccnc2c1)c1ccc(-c2ccccc2)nc1
## Output 7.60

---

Biological target: Cytochrome P450 3A4 (Homo sapiens)
Sequence (P08684 whole entry): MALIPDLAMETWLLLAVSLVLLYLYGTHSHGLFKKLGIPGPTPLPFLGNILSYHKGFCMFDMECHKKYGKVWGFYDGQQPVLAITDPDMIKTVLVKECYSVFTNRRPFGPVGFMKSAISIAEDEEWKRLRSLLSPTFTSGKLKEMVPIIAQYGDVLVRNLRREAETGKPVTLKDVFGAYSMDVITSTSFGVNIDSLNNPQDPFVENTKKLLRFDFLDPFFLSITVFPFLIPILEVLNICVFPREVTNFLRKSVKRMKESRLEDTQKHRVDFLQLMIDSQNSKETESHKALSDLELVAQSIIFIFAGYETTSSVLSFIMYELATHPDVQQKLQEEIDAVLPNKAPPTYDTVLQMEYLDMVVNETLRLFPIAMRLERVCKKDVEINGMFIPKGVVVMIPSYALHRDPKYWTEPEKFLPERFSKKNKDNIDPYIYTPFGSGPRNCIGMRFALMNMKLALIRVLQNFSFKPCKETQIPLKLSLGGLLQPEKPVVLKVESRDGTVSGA
pIC50: −log10 of the molar value.
Endpoint: pIC50

## Input Value lookup for pIC50; key = O=C(Nc1ccc2cccnc2c1)c1ccc(-c2ccccc2)nc1
## Output < 4.74

---

Target: UniProt:P11712
Sequence (P11712 whole entry): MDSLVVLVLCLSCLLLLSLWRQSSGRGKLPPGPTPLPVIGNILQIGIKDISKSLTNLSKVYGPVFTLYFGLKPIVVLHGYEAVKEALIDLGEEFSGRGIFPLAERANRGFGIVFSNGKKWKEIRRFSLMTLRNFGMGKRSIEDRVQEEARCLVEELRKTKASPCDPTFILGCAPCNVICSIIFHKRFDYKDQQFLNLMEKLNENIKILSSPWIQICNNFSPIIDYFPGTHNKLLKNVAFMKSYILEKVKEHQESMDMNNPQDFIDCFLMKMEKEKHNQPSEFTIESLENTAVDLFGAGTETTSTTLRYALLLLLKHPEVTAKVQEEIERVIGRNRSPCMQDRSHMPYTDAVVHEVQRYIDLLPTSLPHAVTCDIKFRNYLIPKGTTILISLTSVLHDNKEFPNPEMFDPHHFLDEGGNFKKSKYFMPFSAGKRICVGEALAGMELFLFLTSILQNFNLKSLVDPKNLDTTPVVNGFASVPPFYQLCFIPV
Endpoint: IC50

## Input Give UniProt:P11712 IC50 for O=C(Nc1ccc2cccnc2c1)c1ccc(-c2ccccc2)nc1
## Output > 18 µM

---

Molecular target: Cytochrome P450 2D6 (Homo sapiens, UniProt P10635)
Sequence (P10635 whole entry): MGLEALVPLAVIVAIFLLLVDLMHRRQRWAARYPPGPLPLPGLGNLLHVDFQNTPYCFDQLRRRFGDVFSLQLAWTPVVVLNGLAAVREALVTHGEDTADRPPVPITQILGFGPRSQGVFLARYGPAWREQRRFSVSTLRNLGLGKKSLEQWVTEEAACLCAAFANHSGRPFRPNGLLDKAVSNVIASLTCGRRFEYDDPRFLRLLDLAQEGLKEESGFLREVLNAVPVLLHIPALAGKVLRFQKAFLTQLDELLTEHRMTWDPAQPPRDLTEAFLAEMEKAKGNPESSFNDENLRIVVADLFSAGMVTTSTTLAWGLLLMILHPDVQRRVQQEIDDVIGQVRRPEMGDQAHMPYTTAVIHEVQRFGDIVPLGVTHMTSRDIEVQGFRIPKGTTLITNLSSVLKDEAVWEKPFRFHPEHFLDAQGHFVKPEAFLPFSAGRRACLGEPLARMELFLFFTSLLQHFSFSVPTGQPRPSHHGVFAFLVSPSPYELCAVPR
Endpoint: IC50

## Input Give Cytochrome P450 2D6 (Homo sapiens, UniProt P10635) IC50 for O=C(Nc1ccc2cccnc2c1)c1ccc(-c2ccccc2)nc1
## Output > 18 µM

---

Target: Cytochrome P450 1A2 (Homo sapiens, UniProt P05177)
Sequence (P05177 whole entry): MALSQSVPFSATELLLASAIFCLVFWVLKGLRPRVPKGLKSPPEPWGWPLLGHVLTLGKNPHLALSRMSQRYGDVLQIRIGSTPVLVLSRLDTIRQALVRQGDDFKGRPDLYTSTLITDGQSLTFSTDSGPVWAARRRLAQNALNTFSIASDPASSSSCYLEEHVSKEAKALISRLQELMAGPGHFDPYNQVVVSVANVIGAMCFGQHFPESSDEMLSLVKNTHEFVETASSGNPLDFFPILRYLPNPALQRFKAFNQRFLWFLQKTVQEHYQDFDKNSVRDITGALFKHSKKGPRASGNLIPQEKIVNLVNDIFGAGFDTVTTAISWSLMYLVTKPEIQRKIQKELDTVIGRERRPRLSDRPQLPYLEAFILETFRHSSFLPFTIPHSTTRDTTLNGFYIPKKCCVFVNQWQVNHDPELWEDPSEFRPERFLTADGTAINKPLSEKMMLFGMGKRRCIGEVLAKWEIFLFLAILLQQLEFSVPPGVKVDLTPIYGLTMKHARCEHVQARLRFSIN
Endpoint: IC50

## Input Value lookup for IC50; key = O=C(Nc1ccc2cccnc2c1)c1ccc(-c2ccccc2)nc1
## Output > 18 µM

---

Molecular target: UniProtKB Q8NER1
Test: Antagonist activity against human TRPV1 assessed as inhibition of capsaicin-induced calcium influx by FLIPR assay
Type: functional
Catalogue of pKb readings, one per entry.

O=C(Nc1ccc2ccncc2c1)c1ccc(-c2ccccc2)cc1 7.4
CN1CCCc2ccc(NC(=O)c3ccc(-c4ccsc4)cc3)cc21 7.8
O=C(Nc1cccc2cnccc12)c1ccc(-c2ccccc2)cc1 7.7
CN1CCCc2ccc(NC(=O)c3ccc(-c4ccccc4)s3)cc21 7
O=C(Nc1ccc2ccc(O)nc2c1)c1ccc(-c2ccccc2)cc1 8.5
CN1CCCc2c(NC(=O)c3ccc(-c4ccccc4)cc3)cccc21 < 6.5
O=C(Nc1ccc2ncccc2c1)c1ccc(-c2ccccc2)cc1 6.9
O=C(Nc1ccc2cccnc2c1)c1ccc(-c2ccccc2)cc1 9.4
O=C(Nc1cccc2ncccc12)c1ccc(-c2ccccc2)cc1 < 6.5
Cc1ccc2ccc(NC(=O)c3ccc(-c4ccccc4)cc3)cc2n1 8

## Input Value lookup for pKb; key = CC(=O)c1cccc(-c2ccc(C(=O)Nc3ccc4c(c3)N(C)CCC4)cc2)c1
## Output 7

## Input Value lookup for pKb; key = CN1CCCc2ccc(NC(=O)c3ccc(-c4cnccn4)cc3)cc21
## Output 7.1

## Input Value lookup for pKb; key = CN1CCCc2ccc(NC(=O)c3cnc(-c4ccccc4)cn3)cc21
## Output < 6.8

## Input Value lookup for pKb; key = CN1CCCc2ccc(NC(=O)c3ccccc3-c3ccccc3)cc21
## Output < 6.6

## Input Value lookup for pKb; key = CN1CCCc2ccc(NC(=O)c3ccc(-n4cccn4)cc3)cc21
## Output 6.9

## Input Value lookup for pKb; key = CC(=O)NCCN1CCCc2ccc(NC(=O)c3ccc(-c4ccccc4)cc3)cc21
## Output 6.9

## Input Value lookup for pKb; key = CN1CCCc2ccc(NC(=O)c3ccc(-c4cccs4)cc3)cc21
## Output 7.6

## Input Value lookup for pKb; key = Cc1cc(C(=O)Nc2ccc3c(c2)N(C)CCC3)ccc1-c1ccccc1
## Output 7.4

## Input Value lookup for pKb; key = CN1CCCc2cccc(NC(=O)c3ccc(-c4ccccc4)cc3)c21
## Output < 6.3

## Input Value lookup for pKb; key = CN1CCCc2ccc(NC(=O)c3ccc(-c4ccccc4)cc3)cc21
## Output 7.5

## Input Value lookup for pKb; key = CC(=O)N1CCCc2ccc(NC(=O)c3ccc(-c4ccccc4)cc3)cc21
## Output 7.2

## Input Value lookup for pKb; key = CN1CCCc2ccc(NC(=O)c3ccc(-c4cncnc4)cc3)cc21
## Output 6.9

## Input Value lookup for pKb; key = CN(C)C(=O)c1ccc(-c2ccc(C(=O)Nc3ccc4c(c3)N(C)CCC4)cc2)cc1
## Output 7.1
